All values here come from patent US10266544B2.

# maps each entry to its log10 of MIC
# Test system: Bacillus anthracis, Sterne 34F2
# assay-method-text: microbe, parasite or virus in culture
# Format: cell-based
# experimental-conditions: STERNE34F2, read-out: MIC B.a.
Structures can show the parent of a compound that is named as a salt.
Recorded MIC (log10, µg/mL)

// solved cases for log10 of MIC follow
compound	result-number
CN[C@@H]1[C@H](O)[C@H](NC)[C@H]2O[C@]3(O)[C@H](O[C@@H]2[C@H]1O)O[C@H](C)C[C@@]3(O)CNCc1cncnc1 [compound 66]	2.00
CN[C@@H]1[C@H](O)[C@H](NC)C2O[C@]3(O)C(OC2[C@H]1O)O[C@H](C)C[C@@]3(O)CNCc1cccc(O)c1 (stereo partly shown) [compound 35]	1.40
CN[C@@H]1[C@H](O)[C@H](NC)[C@H]2O[C@]3(O)[C@H](O[C@@H]2[C@H]1O)O[C@H](C)C[C@@]3(O)CNCc1ccc(C(C)C)cc1 [compound 23, Trihydrochloride]	1.10
CN[C@@H]1[C@H](O)[C@H](NC)[C@H]2O[C@]3(O)[C@H](O[C@@H]2[C@H]1O)O[C@H](C)C[C@@]3(O)CNCc1ccco1 [compound 8, Trihydrochloride]	1.70

### Prompt Tell me log10 of MIC of CN[C@@H]1[C@H](O)[C@H](NC)[C@H]2O[C@]3(O)[C@H](O[C@@H]2[C@H]1O)O[C@H](C)C[C@@]3(O)CNCc1ccccc1OC(F)(F)F [compound 10, Trihydrochloride] when tested on Bacillus anthracis, Sterne 34F2.
### Response 2.30

====

Reported values of zone of inhibition at 4 µg/disc for individual entries
# Tested on: Neisseria meningitides (ATCC 13077)
# assay-method-text: Disc diffusion assay
# Type: cell-based
# experimental-conditions: ATCC13077, 4 μg per disc, read-out: Zone of inhibition N.m.
Counter-ions that a name gives are not always drawn.

molecule	zone of inhibition at 4 µg/disc
CCc1ccc(CNC[C@]2(O)C[C@@H](C)O[C@H]3O[C@@H]4[C@@H](O)[C@H](NC)[C@H](O)[C@H](NC)[C@H]4O[C@]32O)cc1 [compound 3, Trihydrochloride]	18 mm
CN[C@@H]1[C@H](O)[C@H](NC)[C@H]2O[C@]3(O)[C@H](O[C@@H]2[C@H]1O)O[C@H](C)C[C@@]3(O)CNCc1ccc(Cl)cc1 [compound 18, Trihydrobromide]	16 to 18 mm

### Prompt For CCOc1ccc(CNC[C@]2(O)C[C@@H](C)O[C@H]3O[C@@H]4[C@@H](O)[C@H](NC)[C@H](O)[C@H](NC)[C@H]4O[C@]32O)cc1 [compound 4, Trihydrochloride] , write its zone of inhibition at 4 µg/disc.
### Response 16 to 18 mm

====

Overview of recorded zone of inhibition at 4 µg/disc for various molecules
# Tested on: Legionella pneumophila (ATCC 33153)
# assay-method-text: microbe, parasite or virus in culture
# Type: cell-based
# experimental-conditions: ATCC33153, 72 h, read-out: Zone of inhibition L.p.
Where a name gives a salt, the structure may show the parent alone.
# value in mm; strip the unit string

molecule	zone of inhibition at 4 µg/disc [mm]
CN[C@@H]1[C@H](O)[C@H](NC)[C@H]2O[C@]3(O)[C@H](O[C@@H]2[C@H]1O)O[C@H](C)C[C@@]3(O)CNCCc1ccc(Cl)cc1 [compound 54, Trihydrobromide]	15
CN[C@@H]1[C@H](O)[C@H](NC)[C@H]2O[C@]3(O)[C@H](O[C@@H]2[C@H]1O)O[C@H](C)C[C@@]3(O)CNCCc1ccc(C(F)(F)F)cc1 [compound 58, Trihydrochloride]	26

### Prompt Specify zone of inhibition at 4 µg/disc for CN[C@@H]1[C@H](O)[C@H](NC)[C@H]2O[C@@]3(O)C(=O)C[C@@H](C)O[C@H]3O[C@@H]2[C@H]1O [SPC, reference compound] and stop.
### Response 0

### Prompt Provide one value: measured zone of inhibition at 4 µg/disc of CN[C@@H]1[C@H](O)[C@H](NC)[C@H]2O[C@]3(O)[C@H](O[C@@H]2[C@H]1O)O[C@H](C)C[C@]3(O)CNCCc1ccccc1 [compound 27, Trihydrochloride]
### Response 0

### Prompt Report zone of inhibition at 4 µg/disc for CN[C@@H]1[C@H](O)[C@H](NC)[C@H]2O[C@]3(O)[C@H](O[C@@H]2[C@H]1O)O[C@H](C)C[C@]3(O)CNCc1ccc(F)cc1 [compound 28, Trihydrochloride]
### Response 0
